TARGET_DESC: T1, Human CXCR2 (human, UniProt P25025 1-360)
T1 sequence: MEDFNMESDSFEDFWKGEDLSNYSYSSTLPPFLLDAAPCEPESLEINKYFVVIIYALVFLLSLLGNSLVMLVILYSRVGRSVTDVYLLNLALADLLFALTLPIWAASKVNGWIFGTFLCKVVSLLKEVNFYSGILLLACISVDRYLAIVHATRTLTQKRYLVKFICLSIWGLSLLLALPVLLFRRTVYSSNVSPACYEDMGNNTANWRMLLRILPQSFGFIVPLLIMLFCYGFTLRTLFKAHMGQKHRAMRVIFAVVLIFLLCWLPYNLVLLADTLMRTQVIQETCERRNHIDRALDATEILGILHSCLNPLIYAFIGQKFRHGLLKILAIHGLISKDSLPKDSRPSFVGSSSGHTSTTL
PROCEDURE_SUMMARY: cell-based or functional assay
MEASUREMENT_LABEL: [35S]GTPγS % inhibition of max (GRO-α)
Write the figure, then the unit, nothing else.

• CXCR20020 (bispecific antibody, Biparatopic: two VHH joined by a GlySer linker; also called 127D1-35GS-163D2; 127D1-163D2; not shown: C-terminal c-myc tag and His6 tag coded by pAX100) EVQLVESGGGLVQAGESLRLSCAASGSTFDFKVMGWYRQPPGKQREGVAAIRLSGNMHYAESVKGRFTISKANAKNTVYLQMNSLRPEDTAVYYCKVNIRGQDYWGQGTQVTVSSGGGGSGGGGSGGGGSGGGGSGGGGSGGGGSGGGGSEVQLVESGGGLVQAGGSLRLSCAASGRTFSDYAMGWFRQAPGKEREFVAAITWNGGRVFYTASVKGRFTISRDNAKNTMYLQMNSLKPEDTAVYYCAADKDRRTDYLGHPVAYWGQGTQVTVSS = 100%

Q: Given the entry CXCR20022 (VHH, Bivalent: two VHH joined by a GlySer linker; also called 163D2-35GS-163D2; not shown: C-terminal c-myc tag and His6 tag coded by pAX100) EVQLVESGGGLVQAGGSLRLSCAASGRTFSDYAMGWFRQAPGKEREFVAAITWNGGRVFYTASVKGRFTISRDNAKNTMYLQMNSLKPEDTAVYYCAADKDRRTDYLGHPVAYWGQGTQVTVSSGGGGSGGGGSGGGGSGGGGSGGGGSGGGGSGGGGSEVQLVESGGGLVQAGGSLRLSCAASGRTFSDYAMGWFRQAPGKEREFVAAITWNGGRVFYTASVKGRFTISRDNAKNTMYLQMNSLKPEDTAVYYCAADKDRRTDYLGHPVAYWGQGTQVTVSS , report its measured [35S]GTPγS % inhibition of max (GRO-α).
A: 100%
